Data credit: paper PMC8795677

# targetUnderTest: mGlu1 E325C mutant (Rattus norvegicus, UniProt P23385, E325C)
# Sequence (P23385 19-1199 E325C): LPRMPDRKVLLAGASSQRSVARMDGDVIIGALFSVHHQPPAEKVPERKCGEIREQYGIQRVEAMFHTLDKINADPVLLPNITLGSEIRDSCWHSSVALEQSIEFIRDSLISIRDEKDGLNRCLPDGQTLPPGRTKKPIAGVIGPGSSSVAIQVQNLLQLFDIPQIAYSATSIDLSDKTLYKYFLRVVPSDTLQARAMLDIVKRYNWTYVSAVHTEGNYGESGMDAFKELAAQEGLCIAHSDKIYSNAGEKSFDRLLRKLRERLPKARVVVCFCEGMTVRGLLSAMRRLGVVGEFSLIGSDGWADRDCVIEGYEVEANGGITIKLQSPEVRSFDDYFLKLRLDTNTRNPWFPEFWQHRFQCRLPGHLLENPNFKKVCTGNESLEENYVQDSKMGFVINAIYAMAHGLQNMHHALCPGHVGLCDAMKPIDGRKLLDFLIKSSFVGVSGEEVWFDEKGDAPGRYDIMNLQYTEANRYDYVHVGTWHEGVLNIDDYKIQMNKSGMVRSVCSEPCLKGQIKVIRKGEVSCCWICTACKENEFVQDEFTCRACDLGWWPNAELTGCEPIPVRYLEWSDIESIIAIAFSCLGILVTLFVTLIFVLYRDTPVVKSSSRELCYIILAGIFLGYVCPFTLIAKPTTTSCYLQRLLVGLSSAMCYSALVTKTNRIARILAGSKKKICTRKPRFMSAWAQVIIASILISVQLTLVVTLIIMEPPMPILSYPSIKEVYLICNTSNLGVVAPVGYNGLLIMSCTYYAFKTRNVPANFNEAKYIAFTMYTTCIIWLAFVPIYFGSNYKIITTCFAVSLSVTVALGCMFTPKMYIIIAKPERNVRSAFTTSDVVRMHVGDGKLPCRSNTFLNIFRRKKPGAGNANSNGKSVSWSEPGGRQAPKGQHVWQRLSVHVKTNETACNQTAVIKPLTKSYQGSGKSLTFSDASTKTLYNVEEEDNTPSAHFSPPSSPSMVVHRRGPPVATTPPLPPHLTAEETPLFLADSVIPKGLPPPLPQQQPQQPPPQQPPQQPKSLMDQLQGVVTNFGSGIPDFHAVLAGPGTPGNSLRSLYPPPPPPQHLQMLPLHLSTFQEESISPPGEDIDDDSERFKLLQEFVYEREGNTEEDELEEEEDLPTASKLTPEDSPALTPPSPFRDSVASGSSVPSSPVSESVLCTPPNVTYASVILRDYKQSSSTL
# assay: Fluorescent Ca2+ imaging in transfected HEK293 cells, E325C mutant
# assayContext: HEK293 cells, E325C mutant, dose dependency; read-out: EC50 of activation (Δratio, [Ca2+]i)
readout: EC50
Form entry: enter the amount, then its unit.

Identify measured EC50 corresponding to [Cu+2] [Cu^2+, CuCl2] 220 nM

----------
# targetUnderTest: mGlu1 V405H/D322C/D324H (HCH) mutant (Rattus norvegicus, UniProt P23385, D322C/D324H/V405H)
# Sequence (P23385 19-1199 D322C/D324H/V405H): as the sequence (P23385 19-1199 E325C) above, with D304C, D306H, C307E, V387H counted along it
# assay: Fluorescent Ca2+ imaging in transfected HEK293 cells, HCH mutant
# assayContext: HEK293 cells, HCH mutant, dose dependency; read-out: EC50 of activation (Δratio, [Ca2+]i)
readout: pEC50
Please keep in mind that pEC50 is minus log10 of the molar concentration; only the number is needed.

Report measured pEC50; entry is `[Zn+2]` 6.36

----------
# targetUnderTest: mGlu1 Q73H/D324H/E325C mutant (Rattus norvegicus, UniProt P23385, D324H/E325C/Q73H)
# Sequence (P23385 19-1199 Q73H/D324H/E325C): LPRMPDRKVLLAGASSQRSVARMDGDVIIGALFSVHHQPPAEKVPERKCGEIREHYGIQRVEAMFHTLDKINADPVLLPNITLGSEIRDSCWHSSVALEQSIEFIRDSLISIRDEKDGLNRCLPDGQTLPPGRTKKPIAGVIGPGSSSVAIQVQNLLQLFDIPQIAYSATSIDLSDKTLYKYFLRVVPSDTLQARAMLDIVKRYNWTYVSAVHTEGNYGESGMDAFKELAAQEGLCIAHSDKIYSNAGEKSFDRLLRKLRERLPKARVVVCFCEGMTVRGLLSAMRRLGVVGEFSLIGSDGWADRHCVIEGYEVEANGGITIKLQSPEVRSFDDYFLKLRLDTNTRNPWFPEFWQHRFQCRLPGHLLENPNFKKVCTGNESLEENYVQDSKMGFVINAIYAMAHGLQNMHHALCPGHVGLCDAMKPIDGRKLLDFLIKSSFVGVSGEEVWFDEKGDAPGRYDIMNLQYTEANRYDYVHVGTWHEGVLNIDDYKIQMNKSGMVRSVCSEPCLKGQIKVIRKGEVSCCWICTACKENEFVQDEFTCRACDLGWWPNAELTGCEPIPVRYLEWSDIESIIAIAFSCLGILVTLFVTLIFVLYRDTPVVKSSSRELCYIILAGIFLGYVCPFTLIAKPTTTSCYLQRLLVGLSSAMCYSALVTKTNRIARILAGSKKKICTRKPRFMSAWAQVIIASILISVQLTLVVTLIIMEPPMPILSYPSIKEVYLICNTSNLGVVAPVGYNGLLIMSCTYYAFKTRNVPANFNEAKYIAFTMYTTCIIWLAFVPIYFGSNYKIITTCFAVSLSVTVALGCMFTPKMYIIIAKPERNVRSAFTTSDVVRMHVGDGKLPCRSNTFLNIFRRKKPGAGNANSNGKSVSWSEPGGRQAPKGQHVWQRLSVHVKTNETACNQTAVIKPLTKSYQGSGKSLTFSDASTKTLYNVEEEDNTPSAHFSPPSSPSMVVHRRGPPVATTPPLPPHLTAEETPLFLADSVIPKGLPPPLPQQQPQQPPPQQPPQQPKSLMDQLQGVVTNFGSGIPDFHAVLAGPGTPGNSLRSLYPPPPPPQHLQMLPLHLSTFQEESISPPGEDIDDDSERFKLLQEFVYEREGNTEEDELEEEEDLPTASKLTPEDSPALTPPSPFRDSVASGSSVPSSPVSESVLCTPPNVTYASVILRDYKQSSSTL
# assay: Fluorescent Ca2+ imaging in transfected HEK293 cells, Q73H/D324H/E325C mutant
# assayContext: HEK293 cells, Q73H/D324H/E325C mutant, dose dependency; read-out: EC50 of activation (Δratio, [Ca2+]i)
readout: pEC50
Friendly reminder that pEC50 comes from taking -log10 of the concentration in mol/L.

Input [Cu+2] [Cu^2+, CuCl2] , output reported pEC50. 5.82
